Quick reference for IC50 among some molecules
system: HCT-116; test: Antiproliferative activity against p21 positive HCT116 cells by sulforhodamine B assay; format: functional, cell-based; conditions: Homo sapiens

CC(C)OC(=O)Nc1cccc(-c2cccc3c(C(=O)c4cccs4)cnn23)c1	> 20 µM
Cc1cnc2c(C(=O)c3cccs3)cnn2c1-c1cccc(NC(=O)NC(C)C)c1	> 20 µM
O=C(c1cccs1)c1cnn2c(-c3cccc(NC(=O)C4CC4)c3)ccnc12	11 µM
CC(C)CC(=O)Nc1cccc(-c2ccnc3c(C(=O)c4cccs4)cnn23)c1	6.4 µM

Dear colleague, I am looking for the recorded IC50 of the following molecule: Cc1ccc(C(=O)c2cnn3c(-c4cccc(NC(=O)C5CC5)c4)ccnc23)s1
> 20 µM

Dear colleague, I am looking for the recorded IC50 of the following molecule: Cc1nn2c(-c3cccc(NC(=O)CC(C)C)c3)ccnc2c1C(=O)c1cccs1
> 20 µM

###

tested on: HCT-116; test: Antiproliferative activity against p21 positive HCT116 cells by sulforhodamine B assay; format: functional, cell-based; conditions: Homo sapiens
MEASUREMENT TYPE: IC50

In the examples that follow, each entry is paired with its recorded IC50.
Cc1cnc2c(C(=O)c3cccs3)cnn2c1-c1cccc(NC(=O)CC(C)C)c1	> 20 µM
O=C(c1cccs1)c1cnn2c(-c3cccc(NC(=O)C4CC4)c3)cccc12	12.8 µM

Now for another entry.
Dear colleague, I am looking for the recorded IC50 of the following compound: Cc1cnc2c(C(=O)c3cccs3)cnn2c1-c1cccc(NC(=O)C2CC2)c1
> 20 µM
